Test system: rat DGAT2 mRNA
Assay Details: Dose-dependent inhibition of DGAT2 in A10 cells (Tables 82, 83)
Format: cell-based
Experimental Setup: 100.0 nM (Table 82)
Strand notation (5' to 3'): a small letter for the sugar, then the base; units joined by * are phosphorothioate-linked, units joined directly phosphodiester-linked; [ ] holds rarer units or linkages, { } end groups; capitals alone tell only the bases. e = 2'-O-(2-methoxyethyl) (MOE); [5mC] = 5-methylcytosine; d = 2'-deoxy (DNA)
Please enter y where percent inhibition of DGAT2 is greater than or equal to 50%, and n where it is lower.

Substance	Assigned Category
372618 (antisense eG*eT*dG*dG*dT*dA*d[5mC]*dA*dG*dG*dT*d[5mC]*eG*eA) [compound 372618]	y
372562 (antisense eG*eT*d[5mC]*dT*dT*dG*dG*dA*dG*dG*dG*d[5mC]*e[5mC]*eG) [compound 372562]	n
372586 (antisense eG*eT*dT*d[5mC]*d[5mC]*dT*dG*dG*dT*dG*dG*dT*e[5mC]*eA) [compound 372586]	n
372602 (antisense e[5mC]*e[5mC]*dA*dG*dG*d[5mC]*dA*dT*dG*dG*dA*dG*e[5mC]*eT) [compound 372602]	n

Next, consider the following substance.
Answer whether percent inhibition of DGAT2 of 372568 (antisense eG*eA*d[5mC]*dA*d[5mC]*dT*dG*d[5mC]*dA*dG*dG*d[5mC]*e[5mC]*eA) [compound 372568] is greater than or equal to 50%.
y

---

Tested on: PTP1B mRNA
Assay Details: Antisense inhibition of human PTP1B in HepG2 cells, 25 nM (Table 85)
Format: cell-based
Strand notation (5' to 3'): a small letter for the sugar, then the base; units joined by * are phosphorothioate-linked, units joined directly phosphodiester-linked; [ ] holds rarer units or linkages, { } end groups; capitals alone tell only the bases. e = 2'-O-(2-methoxyethyl) (MOE); [5mC] = 5-methylcytosine; d = 2'-deoxy (DNA)
Result Type: % Inhib

Past entries and their recorded results:
Substance	Reading
404139 (eG*eT*dG*d[5mC]*dA*d[5mC]*dA*d[5mC]*dA*dG*d[5mC]*dT*eG*eA) [compound 404139]	45%
399301 (GTGTGCACACAGCT; all C 5-methyl, all phosphorothioate, sugars by position not given here; further chemistry not fully specified) [compound 399301]	43%
404140 (eG*e[5mC]*dA*d[5mC]*dA*d[5mC]*dA*dG*d[5mC]*dT*dG*dA*eG*eG) [compound 404140]	93%
404137 (antisense e[5mC]*eA*dG*dT*dG*dT*dG*d[5mC]*dA*d[5mC]*dA*d[5mC]*eA*eG) [compound 404137]	71%

# ---- query substance ----
System PTP1B mRNA. Read-out % Inhib. Item 404138 (antisense e[5mC]*eT*d[5mC]*dA*dG*dT*dG*dT*dG*d[5mC]*dA*d[5mC]*eA*e[5mC]) [compound 404138] . Report value.
86%

---

Tested on: PCSK9 mRNA
Assay type: cell-based, human
Experimental Setup: Hep3B cells, 100 nM, relative to untreated control cells
Strand notation (5' to 3'): a small letter for the sugar, then the base; units joined by * are phosphorothioate-linked, units joined directly phosphodiester-linked; [ ] holds rarer units or linkages, { } end groups; capitals alone tell only the bases. e = 2'-O-(2-methoxyethyl) (MOE); [5mC] = 5-methylcytosine; d = 2'-deoxy (DNA)
Field: % Inhibition Range. Provide a value for each of the substances that follow.

Past entries and their recorded results:
Substance	Reading
400328 (antisense eA*e[5mC]*dG*dT*dG*dG*dG*d[5mC]*dA*dG*d[5mC]*dA*eG*e[5mC]) [compound 400328]	10-20%
400305 (antisense eG*e[5mC]*d[5mC]*dT*dG*dT*d[5mC]*dT*dG*dT*dG*dG*eA*eA) [compound 400305]	30-40%

Hi there! I need % Inhibition Range for each item below, if you can.
1. 400313 (antisense eG*e[5mC]*dA*dT*d[5mC]*d[5mC]*d[5mC]*dG*dG*d[5mC]*d[5mC]*dG*e[5mC]*eT) [compound 400313]
2. 400314 (antisense eG*eT*dG*d[5mC]*d[5mC]*d[5mC]*dT*dT*d[5mC]*d[5mC]*d[5mC]*dT*eT*eG) [compound 400314]
3. 400331 (antisense eG*e[5mC]*d[5mC]*dA*d[5mC]*dG*dT*dG*dG*dG*d[5mC]*dA*eG*e[5mC]) [compound 400331]
4. 400318 (antisense e[5mC]*e[5mC]*dT*dA*dT*dG*dA*dG*dG*dG*dT*dG*e[5mC]*e[5mC]) [compound 400318]
5. 400311 (antisense eA*eT*d[5mC]*d[5mC]*d[5mC]*dG*dG*d[5mC]*d[5mC]*dG*d[5mC]*dT*eG*eA) [compound 400311]

1. 10-20%
2. 20-30%
3. 30-40%
4. 20-30%
5. 10-20%
